assay-notes: qHTS assay to identify small molecule antagonists of the estrogen receptor alpha (ER-alpha) signaling pathway using the BG1 cell line (AID 743080);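 further: BG1 cells stimulated with 17beta-estradiol alongside compound; nearly all actives have a fitted effect of over 25% in size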; further: potency means the concentration at half of the fitted maximal effect
condition-notes: BG1Luc4E2 ERE-luciferase antagonist mode, luminescence; series mostly up to 70.3 µM
Description: National Center for Advancing Translational Sciences [NCATS] NIH Chemical Genomics Center [NCGC] U.S. Environmental Protection Agency [EPA] National Institutes of Environmental Health Sciences [NIEHS] National Toxicology Program [NTP] U.S. Food and Drug Administration [FDA] Estrogen receptor (ER), a nuclear hormone receptor, plays an important role in development, metabolic homeostasis and reproduction. […]
Records with an inconclusive call do not appear. Calls of active or inactive are those of the source. The call rests on the fitted dose curve.
readout-label: Potency

molecule | reported
C[C@]12CCC(=O)C[C@@H]1CC[C@@H]1[C@@H]2CC[C@]2(C)C=CC[C@@H]12 | inactive
Cn1c(=O)c2c(ncn2CCOC(=O)C(C)(C)Oc2ccc(Cl)cc2)n(C)c1=O | 29800 nM (active)
CCC(C)[C@@H](N)C(=O)O (some centres undefined) | inactive
CN[C@H]1CCc2cc(OC)c(OC)c(OC)c2-c2ccc(OC)c(=O)cc21 | 84.1 nM (active)
COc1cc(Br)c(C[N+]2(CCOCCC3CCC4CC3C4(C)C)CCOCC2)cc1OC (centres undefined) | inactive
COc1ccc(C(=O)CCC(=O)O)c2ccccc12 | inactive
COc1ccc(C(=O)Nc2ccccc2CCC2CCCCN2C)cc1 (centres undefined) | inactive
COc1ccc(C[C@@H](C)NC[C@H](O)c2ccc(O)c(NC=O)c2)cc1 | inactive
CO[C@H]1C[C@@H]2CC[C@@H](C)[C@@](O)(O2)C(=O)C(=O)N2CCCC[C@H]2C(=O)O[C@H]([C@H](C)C[C@@H]2CC[C@@H](OC(=O)C(C)(CO)CO)[C@H](OC)C2)CC(=O)[C@H](C)/C=C(\C)[C@@H](O)[C@@H](OC)C(=O)[C@H](C)C[C@H](C)/C=C/C=C/C=C/1C | inactive
CCCCCCCCCCCCCCCCSCC(COC)COP(=O)([O-])OCC[N+](C)(C)C (centres undefined) | inactive
CC(C)(C)CC(C)(C)c1cc(Cc2cc(C(C)(C)CC(C)(C)C)cc(-n3nc4ccccc4n3)c2O)c(O)c(-n2nc3ccccc3n2)c1 | inactive
CCCCCCCCCCCCCCCCCC(=O)[O][Al] | inactive
O=C(O)C1=C(CSc2nnnn2CS(=O)(=O)O)CS[C@@H]2[C@H](NC(=O)[C@H](O)c3ccccc3)C(=O)N12 | inactive
CC[C@@]1(O)C(=O)OCc2c1cc1n(c2=O)Cc2cc3c([N+](=O)[O-])cccc3nc2-1 | 266 nM (active)
O=C(OCc1ccccc1)c1cccnc1 | inactive
NCCC(=O)[N-][C@@H](Cc1cnc[nH]1)C(=O)O.[Zn] | inactive
COC(=O)C1=C(C#N)NC(C)=C(C(=O)OC(C)C)C1c1cccc([N+](=O)[O-])c1 (centres undefined) | inactive
O=S(O)CNc1ccc(S(=O)(=O)c2ccc(NCS(=O)O)cc2)cc1 | inactive
CCC(Cc1c(I)cc(I)c(O)c1I)C(=O)O (centres undefined) | inactive

From: PubChem BioAssay (Tox21)
